systemTested: menin (Homo sapiens, UniProt O00255, T541A)
Construct: Menin (a.a. 1-610-6×his tag)
Sequence (O00255 with tags, fused parts or gaps T541A): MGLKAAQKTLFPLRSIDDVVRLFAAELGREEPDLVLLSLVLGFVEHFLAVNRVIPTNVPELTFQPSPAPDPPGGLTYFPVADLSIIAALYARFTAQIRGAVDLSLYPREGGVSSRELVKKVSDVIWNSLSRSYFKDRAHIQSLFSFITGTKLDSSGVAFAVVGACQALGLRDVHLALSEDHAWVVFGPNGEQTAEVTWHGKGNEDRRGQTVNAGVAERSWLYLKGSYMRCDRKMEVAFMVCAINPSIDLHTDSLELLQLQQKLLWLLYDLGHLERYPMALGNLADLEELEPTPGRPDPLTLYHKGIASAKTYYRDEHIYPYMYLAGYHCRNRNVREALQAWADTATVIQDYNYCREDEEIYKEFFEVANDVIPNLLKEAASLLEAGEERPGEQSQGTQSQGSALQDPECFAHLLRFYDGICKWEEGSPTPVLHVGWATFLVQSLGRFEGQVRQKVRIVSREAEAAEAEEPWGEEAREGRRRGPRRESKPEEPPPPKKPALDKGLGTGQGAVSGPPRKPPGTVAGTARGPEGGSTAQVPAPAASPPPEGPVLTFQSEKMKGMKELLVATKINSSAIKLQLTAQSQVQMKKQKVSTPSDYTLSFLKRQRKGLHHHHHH
protocol: Menin/MLL homogenous time-resolved fluorescence (HTRF) assay
Assay type: binding
recordedConditions: location 2; read-out: (2) location 2 Menin HTRF assay (IC50 (nM))
quantityName: IC50 (nM)

Solved cases below.
compound	valueUnits	IC50
CS(=O)(=O)N1CCN(C(=O)c2ccc(NC3CC4(CCN(c5ncnc6sc(CC(F)(F)F)cc56)C4)C3)cc2)CC1 (single isomer, unassigned) [Compound 178]	nM	127
CC(NC(=O)c1ccc(NC2CC3(CCN(c4ncnc5sc(CC(F)(F)F)cc45)C3)C2)cc1)C1CCN(S(C)(=O)=O)CC1 (mixture of isomers) [Compound 191]	nM	7.9
N#CCc1ccc(NC2CC3(CCN(c4ncnc5sc(CC(F)(F)F)cc45)C3)C2)c(Cl)c1 (single isomer, unassigned) [Compound 208]	nM	37.7
CNC(=O)c1ccc(NC2CC3(CCN(c4ncnc5sc(CC(F)(F)F)cc45)C3)C2)c(C)c1 (stereo not shown) [Compound 212]	nM	58.1
O=c1[nH]c2cc(N[C@@H]3CCC4(C3)CN(c3ncnc5sc(CC(F)(F)F)cc35)C4)ccc2o1 (single isomer, unassigned) [Compound 286]	nM	23.7

(A) CNc1nc(N2CCC3(CC(Nc4ccc5oc(=O)[nH]c5c4)C3)C2)c2cc(CC(F)(F)F)sc2n1 (single isomer, unassigned) [Compound 397]
(B) O=C(NC1CC2(CCN(c3ncnc4sc(CC(F)(F)F)cc34)C2)C1)c1ccccc1 (stereo not shown) [Compound 36]
(C) CS(=O)(=O)N[C@H]1CC[C@H](NC2CC3(CCN(c4ncnc5sc(CC(F)(F)F)cc45)C3)C2)CC1 (stereo partly shown) [Compound 102]
Prompt: Put these in order: smallest IC50 first, largest last. Response format: the labels, sorted as the prompt asks.
Completion: A, C, B
(A: 4.4 nM, C: 362 nM, B: 7520 nM)

(P) FC(F)(F)Cc1cc2c(N3CCC4(CCC(NCc5ccccc5)CC4)C3)ncnc2s1 (stereo not shown) [Compound 1]
(Q) N#CCc1ccc(C(=O)NC2CC3(CCN(c4ncnc5sc(CC(F)(F)F)cc45)C3)C2)cc1 (mixture of isomers) [Compound 10]
Prompt: Sorting by IC50 in descending order, would P or Q appear first? Response format: the label of the selected entry.
Completion: Q

Cited source: patent US11396517B1
